assay_target: Metabotropic glutamate receptor 3 (Homo sapiens)
Sequence (Q14832 whole entry): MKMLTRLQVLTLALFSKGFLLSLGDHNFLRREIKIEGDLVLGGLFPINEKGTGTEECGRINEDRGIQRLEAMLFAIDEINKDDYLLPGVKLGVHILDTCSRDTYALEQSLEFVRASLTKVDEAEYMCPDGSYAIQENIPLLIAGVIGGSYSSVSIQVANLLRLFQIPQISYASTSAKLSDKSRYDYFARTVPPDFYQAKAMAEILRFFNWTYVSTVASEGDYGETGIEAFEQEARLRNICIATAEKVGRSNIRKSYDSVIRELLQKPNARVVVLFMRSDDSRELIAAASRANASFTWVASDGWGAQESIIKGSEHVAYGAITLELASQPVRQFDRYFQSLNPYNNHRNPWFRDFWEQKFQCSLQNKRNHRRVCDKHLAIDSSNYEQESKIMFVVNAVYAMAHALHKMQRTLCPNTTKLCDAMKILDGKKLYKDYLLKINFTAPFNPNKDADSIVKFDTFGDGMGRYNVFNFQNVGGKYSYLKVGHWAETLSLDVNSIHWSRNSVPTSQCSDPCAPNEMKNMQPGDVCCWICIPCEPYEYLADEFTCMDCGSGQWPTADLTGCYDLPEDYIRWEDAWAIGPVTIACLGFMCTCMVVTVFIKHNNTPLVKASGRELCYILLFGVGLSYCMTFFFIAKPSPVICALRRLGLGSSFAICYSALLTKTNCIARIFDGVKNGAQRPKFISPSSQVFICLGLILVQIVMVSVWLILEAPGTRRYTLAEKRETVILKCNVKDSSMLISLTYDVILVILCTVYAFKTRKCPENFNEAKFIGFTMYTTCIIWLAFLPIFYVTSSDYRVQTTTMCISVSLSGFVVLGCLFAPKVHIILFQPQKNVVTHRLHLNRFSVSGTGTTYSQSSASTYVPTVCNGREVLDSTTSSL
method_notes: Positive allosteric modulation of mGluR3 (unknown origin) by calcium mobilization assay
outcome_measure: EC50

Query string: Consider the molecule shown here: `Cc1ccc2c(c1)C(=O)N(c1ccc(NC(=O)c3occc3C)c(F)c1)C2=O` What is its recorded EC50?
Result string: > 30 µM

====

assay_target: UniProt Q13255
Sequence (Q13255 whole entry): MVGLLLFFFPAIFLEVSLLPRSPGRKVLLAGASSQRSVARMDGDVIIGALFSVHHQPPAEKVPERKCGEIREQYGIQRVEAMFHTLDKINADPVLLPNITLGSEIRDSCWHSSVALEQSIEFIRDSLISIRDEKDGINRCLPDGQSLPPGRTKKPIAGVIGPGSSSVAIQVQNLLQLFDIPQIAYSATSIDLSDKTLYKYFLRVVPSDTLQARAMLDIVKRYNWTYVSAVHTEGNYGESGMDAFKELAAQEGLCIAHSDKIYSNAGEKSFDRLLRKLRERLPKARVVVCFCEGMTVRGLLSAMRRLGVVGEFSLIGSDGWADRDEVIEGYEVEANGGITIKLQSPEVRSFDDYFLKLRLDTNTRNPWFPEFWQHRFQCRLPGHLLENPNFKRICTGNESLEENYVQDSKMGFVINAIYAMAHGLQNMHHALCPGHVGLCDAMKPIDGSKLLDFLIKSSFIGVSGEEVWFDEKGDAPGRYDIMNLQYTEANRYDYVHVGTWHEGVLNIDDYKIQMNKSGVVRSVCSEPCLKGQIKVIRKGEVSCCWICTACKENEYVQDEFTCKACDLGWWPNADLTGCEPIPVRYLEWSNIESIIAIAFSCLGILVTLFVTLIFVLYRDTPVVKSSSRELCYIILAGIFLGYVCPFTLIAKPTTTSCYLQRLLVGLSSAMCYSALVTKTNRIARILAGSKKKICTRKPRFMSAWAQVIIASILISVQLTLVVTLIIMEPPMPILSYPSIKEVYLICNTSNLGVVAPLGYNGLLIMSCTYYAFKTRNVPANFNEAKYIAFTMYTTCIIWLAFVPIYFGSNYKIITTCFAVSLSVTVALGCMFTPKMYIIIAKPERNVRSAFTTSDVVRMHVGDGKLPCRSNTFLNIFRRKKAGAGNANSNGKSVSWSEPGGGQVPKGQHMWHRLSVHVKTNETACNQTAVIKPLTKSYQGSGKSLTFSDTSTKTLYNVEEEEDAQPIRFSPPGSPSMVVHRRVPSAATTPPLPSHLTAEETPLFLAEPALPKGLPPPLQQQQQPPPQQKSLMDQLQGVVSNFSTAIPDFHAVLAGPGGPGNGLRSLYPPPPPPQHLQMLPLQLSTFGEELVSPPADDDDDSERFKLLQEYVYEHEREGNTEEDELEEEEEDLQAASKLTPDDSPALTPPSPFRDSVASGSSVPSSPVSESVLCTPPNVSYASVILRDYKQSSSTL
method_notes: Positive allosteric modulation of human mGluR1 in presence of EC20 concentration of glutamate by calcium mobilization assay
outcome_measure: EC50

Query string: Consider the compound shown here: O=C(Nc1ccc(N2C(=O)C3C(C2=O)[C@H]2C=C[C@@H]3C2)cc1)c1ccccn1 (stereo not given in full) What is its recorded EC50?
Result string: > 30 µM

Query string: Consider the compound shown here: `Cc1ccoc1C(=O)Nc1c(F)cc(N2C(=O)c3ccc(F)cc3C2=O)c(F)c1F` What is its recorded EC50?
Result string: > 10 µM

Query string: Consider the compound shown here: `Cc1cc(N2C(=O)C3=C(CCCC3)C2=O)c(F)cc1NC(=O)c1occc1C` What is its recorded EC50?
Result string: 0.058 µM

Query string: Consider the compound shown here: `Cc1cc(N2C(=O)C3=C(CCCC3)C2=O)c(F)cc1NC(=O)c1ccco1` What is its recorded EC50?
Result string: > 10 µM

Query string: Consider the compound shown here: `Cc1ccoc1C(=O)Nc1c(F)cc(N2C(=O)c3cccc(F)c3C2=O)c(F)c1F` What is its recorded EC50?
Result string: > 10 µM
